- Test system: RXF 393
- Assay Details: NCI tumour cell line growth inhibition, 48 h
Activity calls are given as the source filed them. Cut-off read from the data, not from the text of the source: active = GI50 up to about 1.1 µM and inactive = higher.
Recorded Endpoint: GI50

Would you please look over these solved cases?
Param item = CC(=O)O[C@@H]1C[C@@]23C[C@@]24CC[C@H](OC2OCC(O)C(O)C2O)C(C)(C)[C@@H]4CC=C3[C@]2(C)C[C@@H]3OC4(C[C@@H](C)[C@@H]3[C@@]12C)OC(O)[C@@]1(C)O[C@@H]41 (stereo not given in full) ; retrieve measured GI50.
15.9 µM (inactive)

Param item = CCOP(=O)(OCC)[C@H](O)c1ccsc1 ; retrieve measured GI50.
> 100 µM (inactive)

Param item = N=C(N)NC(=N)Nc1c(F)c(F)c(F)c(F)c1F ; retrieve measured GI50.
> 100 µM (inactive)

Param item = CC(C)CCNc1ncnc2[nH]ncc12 ; retrieve measured GI50.
> 100 µM (inactive)

Next molecule, GI50 to be filled in.
Param item = O=C1C(Cl)C(c2cc(Br)cc(Br)c2O)N1n1cnc2ccccc2c1=O (stereo not given) ; retrieve measured GI50.
21 µM (inactive)

====

- System: NCI-H460
- Assay Details: NCI tumour cell line growth inhibition, 48 h
Calls of active or inactive are those of the source. Rule as the data show it: active = GI50 up to about 1.1 µM and inactive = higher.
Recorded Endpoint: GI50

Would you please look over these solved cases?
Param item = O=c1oc2ccccc2c(-c2ccc(O)cc2)c1Oc1ccccc1 ; retrieve measured GI50.
6.85 µM (inactive)

Param item = CC(=O)/C(=N\O)C(=O)Nc1ccc(Cl)cc1Cl ; retrieve measured GI50.
> 100 µM (inactive)

Param item = c1ccc2c(CNCCCCCCCCCCCCNCc3cccc4ccccc34)cccc2c1 ; retrieve measured GI50.
1.53 µM (inactive)

Param item = O=C1c2c(O)cc(O)cc2OC(c2ccc(O)cc2O)C1O (stereo not given) ; retrieve measured GI50.
> 100 µM (inactive)

Next molecule, GI50 to be filled in.
Param item = c1ccc2sc(C3(N4CCCCC4)CCCC3)cc2c1 ; retrieve measured GI50.
5.93 µM (inactive)

====

- Tested on: PC-3
- Assay Details: NCI tumour cell line growth inhibition, 48 h
Calls of active or inactive are those of the source. No stated cut-off is given here; in the data, active = GI50 up to about 1.1 µM and inactive = higher.
Could you please pick one outcome from this set? TRUE for active, FALSE for inactive

Look up the recorded call for N=C(N)NC(=N)Nc1c(F)c(F)c(F)c(F)c1F in this test.
FALSE

Look up the recorded call for O=S(=O)(N1CCCCN(S(=O)(=O)C(F)(F)F)CCCN(S(=O)(=O)C(F)(F)F)CCCCN(S(=O)(=O)C(F)(F)F)CCCN(S(=O)(=O)C(F)(F)F)CCCCN(S(=O)(=O)C(F)(F)F)CCCN(S(=O)(=O)C(F)(F)F)CCCCN(S(=O)(=O)C(F)(F)F)CCC1)C(F)(F)F in this test.
FALSE

Look up the recorded call for O=c1oc2ccc(-n3c(=O)c4ccccc4c4ccccc4c3=O)cc2c2ccccc12 in this test.
FALSE

Look up the recorded call for S=C(NN=C1NCCCN1)Nc1ccccc1 in this test.
FALSE

Further cases:
Look up the recorded call for OC(C1CCCC1=N/N=C1/CCCC1C(O)(C(F)(F)Cl)C(F)(F)Cl)(C(F)(F)Cl)C(F)(F)Cl (stereo unspecified) in this test.
FALSE

Look up the recorded call for Cc1ccc(S(=O)(=O)n2cnc(CC(NC(=O)C3CCC(=O)N3C(=O)OCc3ccccc3)C(=O)N3CCCC3C(=O)NN)c2)cc1 (stereo unspecified) in this test.
FALSE

Look up the recorded call for Cc1cc2nc(-c3c(F)cccc3F)n(Cc3c(F)cccc3F)c2cc1C in this test.
FALSE

====

- Test system: A549
- Assay Details: NCI tumour cell line growth inhibition, 48 h
The source made the active and inactive calls. Rule as the data show it: active = GI50 up to about 1.1 µM and inactive = higher.
Recorded Endpoint: GI50

Param item = C/C(=N\NC(=O)c1ccc(Cl)cc1)c1nc2cccnc2[nH]1 ; retrieve measured GI50.
30.2 µM (inactive)

Further cases:
Param item = C=C(CCC/C(C)=C/C=C/[C@@H](C)CCCc1ccoc1)C[C@@H]1OC(=O)[C@H](C)[C@@H]1O ; retrieve measured GI50.
7.29 µM (inactive)

Param item = CCCOP(=S)(N1CC1)N1CC1 ; retrieve measured GI50.
> 100 µM (inactive)

====

- Tested on: 786-0
- Assay Details: NCI tumour cell line growth inhibition, 48 h
Activity calls are given as the source filed them. Rule as the data show it: active = GI50 up to about 1.1 µM and inactive = higher.
Could you please pick one outcome from this set? active, inactive

Known results for compounds:
Look up the recorded call for CC1OC(OC2C(Oc3cc(O)c4c(c3)O[C@H](c3ccc(O)cc3)CC4=O)OC(CO)C(O)C2O)C(O)C(O)C1O (some centres undefined) in this test.
inactive

Look up the recorded call for CSC1=Nc2ccccc2-c2nc(-c3ccccc3)cc(-c3ccccc3)c2C1 in this test.
inactive

Look up the recorded call for CCN1C(=O)C(C)S/C1=N\NC(=O)CSc1nc2ccccc2c(=O)n1CC (centres undefined) in this test.
inactive

Look up the recorded call for COc1cc(C2C3=C(COC3=O)Oc3cc4c(cc32)OCO4)cc(OC)c1OC(C)=O (centres undefined) in this test.
active

Look up the recorded call for O=C(O)CN1CCNCCN(CP(=O)(O)O)CC1 in this test.
inactive

Further cases:
Look up the recorded call for Cc1ccc(-c2[nH]c(=O)n(C3OC(CO)C(O)C(O)C3O)c(=O)c2C#N)cc1 (centres undefined) in this test.
inactive

Look up the recorded call for O=C1C(Cl)C2(CC(/C=C/c3cccs3)=NN2c2cccc(S(=O)(=O)O)c2)N1c1nc2ccccc2s1 (centres undefined) in this test.
inactive

Look up the recorded call for O=c1[nH]/c(=C/c2ccc(OCc3ccccc3)cn2)c(=O)[nH]/c1=C/c1cccnc1 in this test.
active

Look up the recorded call for O=C(OCc1ccccc1)c1ccc(NCc2cc(O)ccc2O)cc1 in this test.
active

====

- System: COLO 205
- Assay Details: NCI tumour cell line growth inhibition, 48 h
Calls of active or inactive are those of the source. Rule as the data show it: active = GI50 up to about 1.1 µM and inactive = higher.
GI50: recorded values

Would you please look over these solved cases?
Param item = CCC1(C(=O)OC)CCc2c(OC)ccc(OC)c2C1=O (stereo not drawn) ; retrieve measured GI50.
> 100 µM (inactive)

Param item = O=S(=O)(N1CCCCN(S(=O)(=O)C(F)(F)F)CCCN(S(=O)(=O)C(F)(F)F)CCCCN(S(=O)(=O)C(F)(F)F)CCCN(S(=O)(=O)C(F)(F)F)CCCCN(S(=O)(=O)C(F)(F)F)CCCN(S(=O)(=O)C(F)(F)F)CCCCN(S(=O)(=O)C(F)(F)F)CCC1)C(F)(F)F ; retrieve measured GI50.
> 100 µM (inactive)

Next molecule, GI50 to be filled in.
Param item = CC(C)C1=C(O)C(=O)C2=C(C1=O)C(OC=O)C(O)C1C(C)(C)CCCC21C (stereo not drawn) ; retrieve measured GI50.
3.54 µM (inactive)

====

- System: NCI-H23
- Assay Details: NCI tumour cell line growth inhibition, 48 h
Activity calls are given as the source filed them. Rule as the data show it: active = GI50 up to about 1.1 µM and inactive = higher.
Could you please pick one outcome from this set? T for active, F for inactive

Look up the recorded call for COc1cc(CC(C)=O)cc(OC)c1 in this test.
F

Further cases:
Look up the recorded call for COc1cc(C2C3=C(COC3=O)Oc3cc4c(cc32)OCO4)cc(OC)c1OC(C)=O (stereo not given) in this test.
T

Look up the recorded call for CCCCCCCCOCC(O)COC (stereo not given) in this test.
F

Look up the recorded call for COc1cc(S(=O)(=O)Nc2nc(-c3ccc(N4C(=O)/C(=C/c5ccccc5[N+](=O)[O-])N=C4c4ccccc4)cc3)cs2)ccc1Cl in this test.
F

Look up the recorded call for CCOC(=O)C1(C#N)C(c2ccccc2)CC(O)(c2ccc(OC)cc2)C(C(=O)c2ccc(OC)cc2)C1c1ccccc1 (stereo not given) in this test.
F

Look up the recorded call for Cc1nc(Nc2ccc([N+](=O)[O-])cc2)sc1C(/C=C/c1ccc(N(C)C)cc1)=N/NC(=O)c1ccccc1 in this test.
F

Look up the recorded call for CCCC1(N2C(=O)c3ccc4c5c(ccc(c35)C2=O)N(C2(CCC)CCCCC2)C4=O)CCCCC1 in this test.
F

Look up the recorded call for COC(=O)C1CC2CCC1(O[Si](C(C)C)(C(C)C)C(C)C)C(O)C2 (stereo not given) in this test.
F

Look up the recorded call for Cc1ccc(CCCC(=O)O)cc1C in this test.
F

Look up the recorded call for O=C1OC(=O)C23CSCC12C1C=CC3O1 (stereo not given) in this test.
F

====

- Tested on: SF-268
- Assay Details: NCI tumour cell line growth inhibition, 48 h
Active and inactive are the calls of the source. Cut-off read from the data, not from the text of the source: active = GI50 up to about 1.1 µM and inactive = higher.
Could you please pick one outcome from this set? active, inactive

Look up the recorded call for OC1(c2ccc(Cl)cc2)c2ccccc2-c2nc3ccccc3n21 (stereo unspecified) in this test.
inactive

Look up the recorded call for Nc1ccc(SC23CC4CC(CC(C4)C2)C3)cc1 in this test.
inactive

Look up the recorded call for CN1CC2=C(N=C(S)NC2c2ccccc2Cl)/C(=C/c2ccccc2Cl)C1 (stereo unspecified) in this test.
inactive

Look up the recorded call for C=C1C(=O)O[C@H]2C/C(C)=C/CC[C@]3(C)CCC[C@](C)(CC[C@@H]12)O3 in this test.
inactive

Look up the recorded call for COC1Cc2c(C)c(OC(C)=O)c3cccnc3c2O1 (stereo unspecified) in this test.
inactive

Look up the recorded call for N=c1n(C(=O)N2CCCC2)c2cc(Cl)ccc2n1C1=NCCN1 in this test.
inactive

Look up the recorded call for COC(=O)[C@]1(c2cc3ccccc3n2S(=O)(=O)c2ccccc2)CC2CN(C(C)=O)C1CC2=O (stereo partly specified) in this test.
inactive

Look up the recorded call for CC1(C)C2CCC(O)(C2)C1N (stereo unspecified) in this test.
inactive
